Test: Sensory properties of oil component blended with alkanediol, assessed by untrained panelists on the backside of the hand
Type: in vivo
Conditions: in Grapeseed Oil; scale 1 (low) to 5 (high absorption)

- MOLECULE: "CCCCCCC(O)CO (stereo not shown)"
  Absorption/remaining residue with: 1.6
- MOLECULE: "CCCCC(O)C(C)O (stereo not shown)"
  Absorption/remaining residue with: 2.2
- MOLECULE: "CCCCCC(O)CO (stereo not shown)"
  Absorption/remaining residue with: 2.8
- MOLECULE: "CCCCCC(O)C(C)O (stereo not shown)"
  Absorption/remaining residue with: 2.4

---

Assay: Sensory properties of oil component blended with alkanediol, assessed by untrained panelists on the backside of the hand
Assay type: in vivo
Details: in Cacao butter; scale 1 (low) to 5 (high absorption)
PARAMETER: Absorption/remaining residue with

- COMPOUND: "CCCCCCC(O)CO (stereo not shown)"
  PARAMETER: "Absorption/remaining residue with"
  MEASURED_RESULT: 3
- COMPOUND: "CCCCCC(O)CO (stereo not shown)"
  PARAMETER: "Absorption/remaining residue with"
  MEASURED_RESULT: 3.6
- COMPOUND: "CCCCCC(O)C(C)O (stereo not shown)"
  PARAMETER: "Absorption/remaining residue with"
  MEASURED_RESULT: 2.8
- COMPOUND: "CCCCC(O)C(C)O (stereo not shown)"
  PARAMETER: "Absorption/remaining residue with"
  MEASURED_RESULT: 3.2

---

Recorded Absorption/remaining residue with, one value per entry.
Assay: Sensory properties of oil component blended with alkanediol, assessed by untrained panelists on the backside of the hand
Type: in vivo
Conditions: in Argan Oil; scale 1 (low) to 5 (high absorption)
PARAMETER: Absorption/remaining residue with

- COMPOUND: "CCCCC(O)C(C)O (stereo not shown)"
  MEASURED_RESULT: 2.4
- COMPOUND: "CCCCCC(O)C(C)O (stereo not shown)"
  MEASURED_RESULT: 2.2
- COMPOUND: "CCCCCCC(O)CO (stereo not shown)"
  MEASURED_RESULT: 2.6
- COMPOUND: "CCCCCC(O)CO (stereo not shown)"
  MEASURED_RESULT: 2.8

---

Recorded Absorption/remaining residue with, one value per entry.
Experiment: Sensory properties of oil component blended with alkanediol, assessed by untrained panelists on the backside of the hand
Type: in vivo
Settings: in Coconut Oil; scale 1 (low) to 5 (high absorption)

- MOLECULE: "CCCCCC(O)CO (stereo not shown) [1,2-heptanediol]"
  Absorption/remaining residue with: 2
- MOLECULE: "CCCCCC(O)C(C)O (stereo not shown) [2,3-octanediol]"
  Absorption/remaining residue with: 2.6
- MOLECULE: "CCCCCCC(O)CO (stereo not shown) [1,2-octanediol]"
  Absorption/remaining residue with: 3
- MOLECULE: "CCCCC(O)C(C)O (stereo not shown) [2,3-heptanediol]"
  Absorption/remaining residue with: 2.4

---

Assay: Sensory properties of oil component blended with alkanediol, assessed by untrained panelists on the backside of the hand
Type: in vivo
Settings: in Helianthus Annuus (Sunflower) Seed Oil; scale 1 (low) to 5 (high absorption)
Recorded Absorption/remaining residue with, one value per entry.

- MOLECULE: "CCCCCC(O)C(C)O (stereo not shown)"
  Absorption/remaining residue with: 3.4
- MOLECULE: "CCCCC(O)C(C)O (stereo not shown)"
  Absorption/remaining residue with: 2.6
- MOLECULE: "CCCCCCC(O)CO (stereo not shown)"
  Absorption/remaining residue with: 2
- MOLECULE: "CCCCCC(O)CO (stereo not shown)"
  Absorption/remaining residue with: 2
